experiment: Pharmacokinetics after single oral administration to rats; assay type: in vivo, rat; conditions: male, Wistar, rat, plasma, po, 200 mg/kg, Table S8, 200 mg/kg PO, male Wistar rats, plasma, mean of Rat#13-18; read-out: Cmax, Mean
ENDPOINT_NAME: Cmax

Incoming: Request the reported Cmax associated with COc1cc(Nc2ncnc(Nc3cc4c(cn3)NC(=O)C(C)(C)O4)n2)cc(OC)c1OC
Outgoing: 1280 ng/mL

----------
assay: Pharmacokinetics after single oral administration to rats; assay type: in vivo, rat; conditions: male, Wistar, rat, plasma, oral, 100 mg/kg, Table S7, 100 mg/kg PO, male Wistar rats, 24 h, mean of Rat#7-12
ENDPOINT_NAME: concentration at 24 h (ng/mL)
Just the number in ng/mL, nothing appended.

Incoming: Request the reported concentration at 24 h associated with COc1cc(Nc2ncnc(Nc3cc4c(cn3)NC(=O)C(C)(C)O4)n2)cc(OC)c1OC
Outgoing: 8
